assay: BSK_SAg_SRB: Viability Assessment in the BioMAP Diversity Plus: SAg Assay (AID 2283096); details: primary human HUVEC with PBMC;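 also: cells read one day after compound addition; hits may be either gain or loss of signal compared with DMSO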
Activity calls are given as the source filed them. The calls were made as follows: active = hit-call score of the fitted dose curve at least 0.9, where 1 is the maximum; inactive = score below 0.9.
Choose the fitting class; nothing outside active, inactive is accepted.

Worked cases, answers included:
MOLECULE	LABEL CLASS
COP(=S)(OC)SCN1C(=O)c2ccccc2C1=O	inactive
Cc1ccc(N=C=O)cc1N=C=O	inactive
O=C(O)C1C2CCC(O2)C1C(=O)O (configuration not stated)	active
CCCCCCCCOC(=O)c1ccc(C(=O)OCCCCCCCC)c(C(=O)OCCCCCCCC)c1	inactive

Would you kindly look at the next entry?
Query block: Assay result, entry CCOc1cccc(C2(N3CCN(c4ccccc4)CC3)CCC(C)CC2)c1 (configuration not stated) — outcome?
Result block: inactive

---

test: ATG_MRE_CIS: Attagene CIS-FACTORIAL HepG2 Assay for human Metal Responsive Element (MRE) (AID 2282954); details: HepG2 MRE cis-reporter transcription, Attagene multiplex; actives raise or lower the signal
Activity calls are given as the source filed them. How the source made its calls: active means hit-call score of the fitted dose curve at least 0.9, where 1 is the maximum; inactive means score below 0.9.
Choose the fitting class; nothing outside active, inactive is accepted.

STRUCTURE	LABEL CLASS
Nc1ccc(Cl)cc1N	active

Query block: Assay result, entry CS(=O)(=O)NC(=O)c1cc(Oc2ccc(C(F)(F)F)cc2Cl)ccc1[N+](=O)[O-] — outcome?
Result block: inactive

Query block: Assay result, entry OCCCl — outcome?
Result block: inactive

Query block: Assay result, entry CCCCCCCCOC(=O)c1ccc(C(=O)OCCCCCCCC)c(C(=O)OCCCCCCCC)c1 — outcome?
Result block: inactive

Query block: Assay result, entry Cc1ccc([N+](=O)[O-])cc1 — outcome?
Result block: inactive

Query block: Assay result, entry [As]#[In] — outcome?
Result block: inactive

Query block: Assay result, entry O=[N+]([O-])c1ccc(Oc2ccc(Cl)cc2Cl)cc1 — outcome?
Result block: active

Query block: Assay result, entry Cc1ccc(N)cc1 — outcome?
Result block: inactive

Query block: Assay result, entry CC(C)(C)OOC(=O)c1ccccc1 — outcome?
Result block: active

Query block: Assay result, entry Cc1cccc(N)c1N — outcome?
Result block: active

Query block: Assay result, entry OCCOCCO — outcome?
Result block: inactive

Query block: Assay result, entry CCC[CH2][Sn]([Cl])([CH2]CCC)[CH2]CCC — outcome?
Result block: active

---

Assay: BSK_3C_Proliferation: Cell Proliferation Assessment in the BioMAP Diversity Plus: 3C Assay (AID 2283006)
Settings: primary human endothelial cells (HUVEC)
Experimental: BSK_3C is a cell-based, multiplexed-readout assay that uses umbilical vein endothelium, a human vascular primary cell, with measurements taken at 24 hours after chemical dosing in a 96-well plate.BSK_3C_Proliferation is an assay component measured in the BSK_3C assay. It measures 0.1% sulforhodamine related to cell proliferation using Sulforhodamine staining technology.Data from the assay component BSK_3C_Proliferation was analyzed into 1 assay endpoint. […]
Calls of active or inactive are those of the source. How the source made its calls: active means hit-call score of the fitted dose curve at least 0.9, where 1 is the maximum; inactive means score below 0.9.
Choose the fitting class; nothing outside 1 (yes) for active, 0 (no) for inactive is accepted.

Worked cases, answers included:
MOLECULE	LABEL CLASS
CCCSC(=O)N(CCC)CCC	0 (no)
Cc1cc(N=Nc2ccccc2C)ccc1N	1 (yes)
OCCCBr	0 (no)

Query block: Assay result, entry [As]#[In] — outcome?
Result block: 0 (no)

Query block: Assay result, entry CC(C)COC(=O)c1ccccc1C(=O)OCC(C)C — outcome?
Result block: 1 (yes)
